# Experimental target: T1, human PCSK9 (proprotein convertase subtilisin/kexin type 9), His-tagged, full-length (human, UniProt A8T644 31-152; Q8NBP7 153-692, limits assumed)
# T1 construct: The secreted protein is the prodomain plus the catalytic/Cys-rich part (N-terminus S153) after autocleavage; also called His-PCSK9; NARC-1
# T1 sequence (A8T644 31-152 limits assumed, chain 1 of 2): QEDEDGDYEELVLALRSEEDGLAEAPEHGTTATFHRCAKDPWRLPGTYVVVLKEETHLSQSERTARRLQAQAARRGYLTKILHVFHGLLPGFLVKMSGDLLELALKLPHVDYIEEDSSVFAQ
# T1 sequence (A8T644 other isoform, or with tags, fused parts or gaps limits assumed, chain 2 of 2): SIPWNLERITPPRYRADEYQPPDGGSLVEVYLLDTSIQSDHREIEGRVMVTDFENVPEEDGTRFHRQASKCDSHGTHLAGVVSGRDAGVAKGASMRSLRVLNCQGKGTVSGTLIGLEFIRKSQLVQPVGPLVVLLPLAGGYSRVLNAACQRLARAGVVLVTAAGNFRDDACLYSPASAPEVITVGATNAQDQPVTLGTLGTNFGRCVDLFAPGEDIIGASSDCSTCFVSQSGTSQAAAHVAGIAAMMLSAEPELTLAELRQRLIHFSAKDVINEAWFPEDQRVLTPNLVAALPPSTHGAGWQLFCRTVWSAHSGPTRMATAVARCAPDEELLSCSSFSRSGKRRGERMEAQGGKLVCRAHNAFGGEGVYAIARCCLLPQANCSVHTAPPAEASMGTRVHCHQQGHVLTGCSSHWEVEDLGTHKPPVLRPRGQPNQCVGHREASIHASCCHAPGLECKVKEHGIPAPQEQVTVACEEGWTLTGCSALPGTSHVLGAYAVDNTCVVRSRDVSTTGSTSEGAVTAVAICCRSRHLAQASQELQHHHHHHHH
# Assay summary: TR-FRET competition vs EGF(A)-Fc on His-PCSK9
Measured parameter: IC50 (nM)
One number for each entry, in nM.

Examples with their reported IC50 follow.
[[record]]
binder = "Ac-TVFTSWEEYLDWVGSGKLWNLG-NH2 [Compound 5]"
unit_string = "nM"
experimental_value = 720

[[record]]
binder = "Ac-TVFTSWEEYLDWVGSGKLWN-NH2 [Compound 7]"
unit_string = "nM"
experimental_value = 500


Give me IC50 for each of these binders, listed below.
1. Ac-TVFTSWEEYLDWVGSGKLWNLGRV-NH2 [Compound 1]
2. Ac-TVFTSWEEYLDWVGSGKLWNLGR-NH2 [Compound 4]
3. Ac-TVFTSWEEYLDWVGSGKLWNL-NH2 [Compound 6]
4. Ac-TVFTSWEEYLDWVGSGGKLWNLGRV-NH2 [Compound 9]
5. Ac-TVFTSWEEYLDWVGSGDLMPWNLVRIGLLR-NH2 (also called Pep2-8p7; Pep2-8_K9gvpep7) [Compound 20]
6. Ac-TVFTSWEEYLDWVGGSGKLWNLGRV-NH2 [Compound 8]

Response:
388
490
740
390
37
1030
